Test: Compound was tested for acute toxicity in mice after intraperitoneal administration
Assay type: organism-based
Conditions: mouse, in vivo, ip
reported.property: LD50 (mg/kg)
Record the value in mg/kg, omitting the unit from your answer.

Input: Which LD50 value belongs to `Cc1cc(-c2ccccc2)nnc1NCCCN1CCOCC1` ?
Output: 66

* * *

Assay: Acute toxicity in mice after intraperitoneal administration.
Settings: mouse, in vivo, ip, LD50
LD50 less than 40 mg/kg is condition met; LD50 greater than or equal to 40 mg/kg is condition not met.

Observe how each entry below is paired with its result.
Cc1cc(C)c(NCCN2CCOCC2)nn1: condition not met
Cc1cc(-c2ccccc2)nnc1NCC(C)N1CCOCC1 (configuration not stated): condition not met
CCCN(CCC)CCNc1nnc(-c2ccccc2)cc1C: condition not met

Input: Hello, is LD50 of the following molecule strictly smaller than 40 mg/kg? `c1ccc(-c2cc(-c3ccccc3)c(NCCN3CCOCC3)nn2)cc1`
Output: condition not met

Input: Same lookup for `Cc1cc(-c2ccc(Cl)cc2)nnc1NCCN1CCOCC1` , please.
Output: condition not met

Input: Same lookup for `Cc1cccc(-c2cc(C)c(NCCN3CCOCC3)nn2)c1` , please.
Output: condition met

Input: Same lookup for `Cc1cc(-c2ccccc2)nnc1NCCN1CCCC1` , please.
Output: condition not met

Input: Same lookup for `COc1ccc(-c2cc(C)c(NCCN3CCOCC3)nn2)cc1` , please.
Output: condition met

Input: Same lookup for `Cc1cc(-c2ccccc2)nnc1NCCN(C)C` , please.
Output: condition not met

Input: Same lookup for `Cc1ccccc1-c1cc(C)c(NCCN2CCOCC2)nn1` , please.
Output: condition met

Input: Same lookup for `Cc1cc(-c2ccc3ccccc3c2)nnc1NCCN1CCOCC1` , please.
Output: condition met

Input: Same lookup for `Clc1ccc(Cc2cc(-c3ccccc3)nnc2NCCN2CCOCC2)cc1` , please.
Output: condition not met

Input: Same lookup for Cc1cc(-c2ccccc2)nnc1NC(C)CN (configuration not stated) , please.
Output: condition not met

Input: Same lookup for `c1ccc(-c2cc(Cc3ccc4ccccc4c3)c(NCCN3CCOCC3)nn2)cc1` , please.
Output: condition not met

Input: Same lookup for `Cc1cc(C2CCCCC2)nnc1NCCN1CCOCC1` , please.
Output: condition not met

Input: Same lookup for `CNCCNc1nnc(-c2ccccc2)cc1C` , please.
Output: condition not met

Input: Same lookup for `c1ccc(-c2ccc(NCCN3CCOCC3)nn2)cc1` , please.
Output: condition not met

Input: Same lookup for `COc1cccc(-c2cc(C)c(NCCN3CCOCC3)nn2)c1` , please.
Output: condition met

Input: Same lookup for `Br.Br.Cc1cc(-c2cccc(O)c2)nnc1NCCN1CCOCC1` , please.
Output: condition not met

Input: Same lookup for `Cc1ccc(-c2cc(C)c(NCCN3CCOCC3)nn2)cc1` , please.
Output: condition not met

Input: Same lookup for `Cc1cc(-c2ccccc2)nnc1NCCN` , please.
Output: condition not met

Input: Same lookup for `Cc1cc(-c2ccccc2F)nnc1NCCN1CCOCC1` , please.
Output: condition met

* * *

A collection of compounds and their measured LD50
Assay: Acute toxicity in mice after intraperitoneal administration.
Conditions: mouse, in vivo, ip, LD50
Record the value in mg/kg, omitting the unit from your answer.

# example entries with known answers
COc1ccccc1-c1cc(C)c(NCCN2CCOCC2)nn1: 40
Clc1ccccc1Cc1cc(-c2ccccc2)nnc1NCCN1CCOCC1: 95
Cc1cc(-c2cccs2)nnc1NCCN1CCOCC1: 59
CCOC(=O)c1cc(-c2ccccc2)nnc1NCCN1CCOCC1: 180
Cc1cc(-c2ccccc2)nnc1NCCN1CCOCC1C (stereo not given): 110

Input: Which LD50 value belongs to `Cc1cc(-c2cccc(Cl)c2)nnc1NCCN1CCOCC1` ?
Output: 21

Input: Same lookup for `Cc1cc(-c2ccc([N+](=O)[O-])cc2)nnc1NCCN1CCOCC1` , please.
Output: 35

Input: Same lookup for `c1ccc(Cc2cc(-c3ccccc3)nnc2NCCN2CCOCC2)cc1` , please.
Output: 131

Input: Same lookup for `Cc1cc(Cc2ccccc2)nnc1NCCN1CCOCC1` , please.
Output: 30

Input: Same lookup for `Cc1cc(-c2cccc3ccccc23)nnc1NCCN1CCOCC1` , please.
Output: 7
